Below: a set of entries, each annotated with reported growth.
# Tested on: EKVX NSCLC
# Test Protocol: NCI-60 one-dose screen, 48 h (100 = growth as untreated, 0 = no growth, -100 = all killed)
# Stated Conditions: 10 µM
The panel holds about 83,000 compounds, 20% with a hit somewhere; the sample as a whole holds those more often.
Answer in %, number only, no unit symbol.

{"Structure Notation": "CC1=C(CN(O)C(N)=O)C2=C(C)C3(CC3)[C@](C)(O)C(=O)C2=C1", "growth [%]": 8.16}

In: Please list growth recorded for the molecule N#Cc1nc(-c2ccccc2)oc1N1CCC(S(=O)(=O)F)CC1
Out: 103

In: Please list growth recorded for the molecule CC1=C2C(=O)[C@](C)(CO)C=C2C(=O)[C@](C)(O)C12CC2
Out: 64.7

In: Please list growth recorded for the molecule CC1=C2C(=C[C@@](C)(COC(=O)c3ccc(S(=O)(=O)F)cc3)[C@@H]2OC(=O)c2ccc(S(=O)(=O)F)cc2)C(=O)[C@](C)(O)C12CC2
Out: 23.6

---

Below: a set of entries, each annotated with reported growth.
# Tested on: U251 CNS
# Test Protocol: NCI-60 one-dose screen, 48 h (100 = growth as untreated, 0 = no growth, -100 = all killed)
# Stated Conditions: 10 µM
The panel holds about 83,000 compounds, 20% with a hit somewhere; the sample as a whole holds those more often.
Answer in %, number only, no unit symbol.

{"Compound": "CN1C(=O)[C@]23SSC1(C)C(=O)N2[C@H]1Nc2ccccc2C1([C@@]12c4ccccc4N[C@@H]1N1C(=O)C4(C)SS[C@]1(C(=O)N4C)[C@H]2O)[C@@H]3O (some centres undefined)", "growth / %": -97.5}

In: Please list growth recorded for the compound CC(C)(O)/C=C/C(=O)[C@](C)(O)[C@H]1[C@H](O)C[C@@]2(C)[C@H]3CC=C4[C@@H](C[C@H](O)C(=O)C4(C)C)[C@]3(C)C(=O)C[C@]12C
Out: 0.229

In: Please list growth recorded for the compound COc1cc2c(cc1OC)[C@@H]1N(CC2)C(=O)c2ccccc2[C@@]1(C)C(=O)O
Out: 106

In: Please list growth recorded for the compound CC(=O)O[C@@H]1C[C@H]2O[C@@H]3C=C(C)CC[C@]3(C)[C@]1(C)[C@]21CO1
Out: 5.85

---

# Test system: HL-60(TB) leukemia
# Test Protocol: NCI-60 one-dose screen, 48 h
# Stated Conditions: 10 µM unless noted
About 83,000 compounds went through this panel and 20% of them were active in at least one assay; those are over-represented in the sample as a whole. Calls of active or inactive are those of the source. Rule for the calls: active = growth percent below 10; inactive = the rest.
Choose the fitting class; nothing outside true (1) for active, false (0) for inactive is accepted.

Sample answers from the record:
{"Molecule": "N/C(=N\\C(N)=N\\c1nc2ccccc2s1)c1ccncc1Cl", "Class Name": "true (1)"}
{"Molecule": "O=C(O)c1ccc(-n2cc(CNc3cccc(Cl)c3)c(-c3ccc(F)cc3)n2)cc1", "Class Name": "false (0)"}
{"Molecule": "COc1cc(-c2nn(C(C)(C)C)cc2-c2ccnc(NCCCNS(=O)(=O)c3ccc(C)cc3)n2)ccc1Cl", "Class Name": "false (0)"}

In: What classification did CCCC[n+]1ccc(SCC(=O)n2ccc3ccccc32)c2ccccc21 end up with in this test?
Out: false (0)

In: What classification did CC(=O)c1sc(Nc2cccc(Nc3nc(C)c(C)s3)c2)nc1C end up with in this test?
Out: false (0)

In: What classification did O=C(N/N=C/c1ccc(Cl)s1)c1[nH]c2ccc(Br)cc2c1-c1ccccc1 end up with in this test?
Out: true (1)

In: What classification did NS(=O)(=O)Oc1ccc2nc(Nc3ccc(F)c(F)c3)ccc2c1 end up with in this test?
Out: false (0)

In: What classification did COc1ccc(S(=O)(=O)NCCCNc2nccc(-c3[nH]c(-c4ccccc4)nc3-c3ccc(Cl)c(O)c3)n2)cc1 end up with in this test?
Out: false (0)

In: What classification did O=C(Nc1nc2ccc([N+](=O)[O-])cc2s1)Nc1ccccc1Br end up with in this test?
Out: false (0)

In: What classification did NC(N)=Nc1ccc(Oc2cccc(Nc3ccc(Cl)c(C(F)(F)F)c3)c2)cn1 end up with in this test?
Out: true (1)

In: What classification did O=C(NNc1nc2cc(F)cc(F)c2n2cccc12)c1cnccn1 end up with in this test?
Out: true (1)

In: What classification did Nc1ncc(-c2ccc3ncnc(N4CCc5cc(F)c(Cl)cc54)c3c2)cc1CO end up with in this test?
Out: true (1)

In: What classification did N#Cc1c(-c2cccs2)cc(-c2cnccn2)nc1SCC(=O)N/N=C/c1ccc(Cl)cc1 end up with in this test?
Out: false (0)

In: What classification did Oc1ccc(CSc2nnc(-c3cnccn3)n2-c2ccccc2)c2cccnc12 end up with in this test?
Out: false (0)

In: What classification did CNc1ncc2cc(-c3ccc(-c4ncccc4F)cc3Cl)c(=O)n(CC3OCC(N)CO3)c2n1 (stereo not given) end up with in this test?
Out: false (0)

In: What classification did CCN(CC)CCN1C(=O)c2c(c3c4cccnc4[nH]c3c3ccc4ccccc4c23)C1=O end up with in this test?
Out: false (0)

In: What classification did O=c1[nH]c(CNc2ccc(NCc3c(-c4ccccc4)no[n+]3[O-])cc2)nc2c1cnn2-c1ccccc1 end up with in this test?
Out: false (0)

In: What classification did NC(=O)c1c(NC(=O)c2ccc(F)cc2F)sc2c1CCC(=O)C2 end up with in this test?
Out: false (0)

In: What classification did O=C1CCCC2=C1C(c1c[nH]c3ccc(Br)cc13)Cc1cc(Br)ccc1N2 (stereo not given) end up with in this test?
Out: false (0)

In: What classification did N#Cc1nc(-c2ccccc2)oc1N1CCC(C2(C(F)(F)F)N=N2)CC1 end up with in this test?
Out: false (0)

---

# Test system: NCI-H23 lung
# Test Protocol: NCI-60 one-dose screen, 48 h (100 = growth as untreated, 0 = no growth, -100 = all killed)
# Stated Conditions: 10 µM
About 83,000 compounds went through this panel and 20% of them were active in at least one assay; those are over-represented in the sample as a whole.
Measurement Type: growth (%)
Answer in %, number only, no unit symbol.

In: Fill: growth (NCI-H23 lung) for this compound CC1=C[C@H]2O[C@@H]3C[C@H]4OC(=O)/C=C\C=C\[C@H]([C@@H](C)O)OCC/C(C)=C/C(=O)OC[C@@]2(CC1)[C@]4(C)[C@]31CO1
Out: -36.1

In: Fill: growth (NCI-H23 lung) for this compound CC1=C2C(=C[C@@](C)(COC(=O)c3ccc(S(=O)(=O)F)cc3)[C@@H]2O)C(=O)[C@](C)(O)C12CC2
Out: -32.2

In: Fill: growth (NCI-H23 lung) for this compound C[C@@H]1C[C@H]2C(=O)O[C@@H](C)C(NC(=O)[C@H](Cc3cc(F)cc(F)c3)NC(=O)Nc3ccc(OS(=O)(=O)F)cc3)C(=O)N3CCC[C@H]3C(=O)N3CCO[C@H](C)[C@H]3C(=O)N[C@@H](CO)C(=O)N2C1 (stereo partly drawn)
Out: 36.1

---

# Test system: HOP-62 NSCLC
# Test Protocol: NCI-60 one-dose screen, 48 h
# Stated Conditions: 10 µM
This is part of a sample that, as a whole, favours compounds with a hit. Of some 83,000 tested, about 20% had one in any assay. Calls of active or inactive are those of the source. The calls were made as follows: active = growth percent below 10; inactive = the rest.
Choose the fitting class; nothing outside active, inactive is accepted.

Sample answers from the record:
{"Compound": "CC(=O)O[C@@H]1[C@@H]2O[C@H]2[C@@](C)(O)C(=O)[C@@H](C)C/C=C/[C@H]2[C@@H]3O[C@]3(C)[C@@H](C)C3[C@H](Cc4ccccc4)NC(=O)[C@@]312 (stereo not given in full)", "Class Name": "active"}
{"Compound": "Cc1ccc(CNc2nc3ccc(OC/C(=C/F)CN)cc3o2)cn1", "Class Name": "inactive"}
{"Compound": "CC1=C2C(=C[C@@](C)(COC(=O)c3ccc(S(=O)(=O)F)cc3)[C@@H]2OC(=O)c2ccc(S(=O)(=O)F)cc2)C(=O)[C@](C)(O)C12CC2", "Class Name": "active"}
{"Compound": "CC1=C[C@H]2O[C@@H]3C[C@H]4OC(=O)/C=C\\C=C\\[C@H]([C@@H](C)O)OCC/C(C)=C/C(=O)OC[C@@]2(CC1)[C@]4(C)[C@]31CO1", "Class Name": "active"}

In: What classification did COC(=O)[C@H]1[C@@H](O)[C@@]2(O)c3c(OC)cc(OC)cc3O[C@@]2(c2ccc(OC)cc2)[C@@H]1c1ccccc1 end up with in this test?
Out: active

In: What classification did C[C@@H]1CCC/C=C/[C@H]2C[C@@H](O)C[C@@H]2[C@@H](O)/C=C/C(=O)O1 end up with in this test?
Out: active

In: What classification did COc1cc2c(O[C@@H]3OC[C@H](OC(C)=O)[C@H](OC(C)=O)[C@H]3O)c3c(c(-c4ccc5c(c4)OCO5)c2cc1OC)C(=O)OC3 end up with in this test?
Out: inactive

In: What classification did CN(CCF)/N=N/c1nc[nH]c1C(N)=O end up with in this test?
Out: inactive

In: What classification did C=C1[C@@H](C)C2[C@H](Cc3ccccc3)NC(=O)[C@]23[C@H](OC(C)=O)/C=C/[C@@](C)(O)C(=O)[C@@H](C)C/C=C/[C@H]3[C@@H]1O (stereo not given in full) end up with in this test?
Out: active

In: What classification did CCC(C)[C@H]1C(=O)O[C@H](C(C)C)C(=O)N(C)[C@@H](C(C)C)C(=O)O[C@H](C(C)C)C(=O)N(C)[C@@H](C(C)C)C(=O)O[C@H](C(C)C)C(=O)N1C (stereo not given in full) end up with in this test?
Out: inactive

In: What classification did CC1=C(CN(O)C(N)=O)C2=C(C)C3(CC3)[C@](C)(O)C(=O)C2=C1 end up with in this test?
Out: inactive
